# target_desc: DRB4*0101 (Homo sapiens, UniProt P01903+P13762, G164S)
# assay_overview: biochemical
# Format: binding
Where no end group is shown, it is not given here.
parameter_measured: pIC50
As a rule, pIC50 stands for the negative log10 of the concentration, concentration in M.

q: Could you tell me which pIC50 is on file for LGSQEGAMHTALTGA [Envelope 251-265] ?
a: 5.14

q: Could you tell me which pIC50 is on file for MRCVGVGNRDFVEGL [Envelope 1-15] ?
a: 5.42

q: Could you tell me which pIC50 is on file for EITPQASTTEAILPE [Envelope 161-175] ?
a: 4.78

q: Could you tell me which pIC50 is on file for VTFKNAHAKKPEVVV [Envelope 236-250] ?
a: 5.17

q: Could you tell me which pIC50 is on file for TNTFVLKKEVSETQH [Envelope 301-315] ?
a: 5.66

q: Could you tell me which pIC50 is on file for ALTGATEIQNSGGTS [Envelope 261-275] ?
a: 5.07

q: Could you tell me which pIC50 is on file for AILPEYGTLGLECSP [Envelope 171-185] ?
a: 6.10

q: Could you tell me which pIC50 is on file for TRGAVLTYNGKRLEP [NS3 53-67] ?
a: 4.94

q: Could you tell me which pIC50 is on file for GTILVKVEYKGEDAP [Envelope 316-330] ?
a: 5.22

q: Could you tell me which pIC50 is on file for LPWTSGATTETPTWN [Envelope 216-230] ?
a: 4.94

q: Could you tell me which pIC50 is on file for EGKVVQYENLKYTVI [Envelope 126-140] ?
a: 7.23

q: Could you tell me which pIC50 is on file for LKKEVSETQHGTILV [Envelope 306-320] ?
a: 5.10

Entry source: paper PMC3794980
